# Test system: Candida albicans
# stated.conditions: 20 µM
# Description: Antifungal activity against Candida albicans ATCC 90028 (CO-ADD:FG_001); MIC in YNB media using NBS plates, by OD630
Measured potencies and affinities stand elsewhere.
property.name: Inhibition (%)
Number in %, nothing else.

Answered examples (6):
CCC(=Cc1ccc(CC)cn1)CC: 0.05
C1=Cc2ccccc2Nc2ccccc21: 3.51
COc1ccccc1N=NNc1ccccc1OC: 2.77
Nc1cc(-c2ccccc2)ccc1O: 4.12
C=CCSC(CC)(CC)C(N)=O: 1.53
Nc1ccc(NC(=O)Nc2ccc(N)cc2)cc1: -2.34

The molecule identified as CCOP(=O)(OCC)/C(C#N)=C/c1ccc([N+](=O)[O-])cc1 registered its Inhibition at 0.88

The molecule identified as NCC(=O)Nc1ccc(Cl)cc1C(=O)c1ccc[nH]1 registered its Inhibition at 1.44

The molecule identified as CCc1ccc(CCN2C(=O)c3ccccc3C2=O)nc1 registered its Inhibition at 2.59

The molecule identified as CCOC(=O)/C=C/c1nc(O)c(C)c(C(=O)OCC)n1 registered its Inhibition at 0.35

The molecule identified as CC1(CN2CCCC2)CCC(NC(=O)C(c2ccccc2)c2ccccc2)C(C)(C)O1 (stereo not drawn) registered its Inhibition at 0.1

The molecule identified as NCC(=O)c1cccc2ccc[n+]([O-])c12 registered its Inhibition at 0.31

The molecule identified as Cc1ccc(NC(=O)Nc2c(Cl)cccc2Cl)cn1 registered its Inhibition at 3.4

The molecule identified as CN(CC(=O)O)Cc1oc(CO)cc(=O)c1O registered its Inhibition at 0.31

The molecule identified as O=C1NCCc2c1[nH]c1ccccc21 registered its Inhibition at 2.99

The molecule identified as CCCCN1CCN=C1S registered its Inhibition at -2.77

The molecule identified as Cc1csc(NC(=O)c2ccc(C(=O)Nc3nc(C)cs3)cc2)n1 registered its Inhibition at -0.71

====

# System: Cryptococcus neoformans
# stated.conditions: Concentration 20 uM; ASSAY_TEST Inhibition of Fungal Growth; detection method Resazurin; Absorption (OD600-OD570); plate type 384well; NBS; CORNING #3640
# Description: Antifungal activity against Cryptococcus neoformans H99 ATCC 208821 (CO-ADD:FG_002); MIC in YNB media using NBS plates, by Resazurin OD(600-570)
Measured potencies and affinities stand elsewhere.
molecules and their reported Inhibition
Number in %, nothing else.

Answered examples (3):
CCCCC[C@H](O)/C=C/[C@@H]1[C@@H](C/C=C\CCCC(=O)O)[C@@H](O)C[C@H]1O.NC(CO)(CO)CO [DINOPROST TROMETHAMINE]: -7.36
Cc1ccc(NC(=O)N2CCCCC2)cc1NC(=O)N1CCCCC1: 1.83
Cc1ccc(-c2nc(-c3nccc4ccccc34)oc2-c2ccccc2)cc1: -2.8

The molecule identified as O=C1Nc2ccccc2C1(c1ccc(O)cc1)c1ccc(O)cc1 [OXYPHENISATINE] registered its Inhibition at -4.24

The molecule identified as COc1ccc2c(=O)cc(-c3cccnc3)oc2c1OC registered its Inhibition at -11.85

====

compounds and their reported Inhibition
# System: Cryptococcus neoformans
# stated.conditions: Concentration 20 uM; ASSAY_TEST Inhibition of Fungal Growth; detection method Resazurin; Absorption (OD600-OD570); plate type 384well; NBS; CORNING #3640
Entries with a potency or affinity are not part of this list.
Number in %, nothing else.

COc1cc(C(O)c2nc3ccccc3s2)cc(OC)c1OC (stereo unspecified): -12.06
N#Cc1n[nH]c2nc[nH]c(=O)c12: -10.99
CCCCSc1cc(O)nc(N)n1: -8.65
c1cncc(-c2nc3ccccc3s2)c1: 25.76
c1ccc(Sc2ncnc3ccccc23)cc1: -14.16
Oc1ccc2ccccc2c1/N=N/c1ccc(F)cc1: -8.4
CC(=O)OCCN1c2ccccc2Sc2cnccc21: -8.61
O=C(Nc1cccc([N+](=O)[O-])c1)c1ccc2ccccc2c1O: 4.47
Cc1cc(C)n(C(=N)NC(=O)c2ccc([N+](=O)[O-])cc2)n1: 44.63
CC1(C)CCSC(/C=C/c2ccccc2)=N1: -4.58

The compound identified as O=C1OC(Cc2ccccc2)C(c2ccccc2)C1=O (stereo unspecified) registered its Inhibition at -15.19

The compound identified as c1ccc(-c2nc[nH]c2-c2ccccc2)cc1 registered its Inhibition at -10.72

The compound identified as O=C1C(CO)C(CO)C(CO)C1CO (stereo unspecified) registered its Inhibition at -11.22

The compound identified as O=C1c2cccc3cc([N+](=O)[O-])cc(c23)C(=O)N1CCN1CCCC1 [PINAFIDE] registered its Inhibition at -7.33

The compound identified as O=C(O)c1cc(Cl)nnc1O registered its Inhibition at -6.94

The compound identified as CC(=O)Nc1ccc(S(=O)(=O)N=S(C)C)cc1 registered its Inhibition at -12.86

The compound identified as CC(=O)Nc1ccc2cc3ccc(NC(C)=O)cc3nc2c1 registered its Inhibition at -4.12

The compound identified as CCNc1nn2ccccc2c1/C=C(/C#N)C(=O)OCC registered its Inhibition at -8.42

The compound identified as CC(=O)Nc1cccc(NC(C)=O)n1 registered its Inhibition at -1.6

The compound identified as Cc1nc2ccc(Cl)cn2c1[N+](=O)[O-] registered its Inhibition at -3.42

The compound identified as CN(C)C(=O)OCC1COc2ccccc2O1 (stereo unspecified) registered its Inhibition at -9.62

The compound identified as Nc1c(Cl)cc(S(N)(=O)=O)cc1S(N)(=O)=O registered its Inhibition at -1.7

====

# Test system: Escherichia coli
# method.notes: Antibacterial activity against Escherichia coli ATCC 25922 (CO-ADD:GN_001); MIC in CAMBH media using NBS plates, by Resazurin F(560/590)
# Type: functional
# stated.conditions: Concentration 20 uM, ASSAY_TEST Inhibition of Bacterial Growth, detection method Resazurin, Fluorescence (ex560/em590), MEDIA CAMHB, plate type 384well, CORNING #3640, time 18 hr
compounds and their reported Inhibition
Number in %, nothing else.

C1=Cc2ccccc2Nc2ccccc21 [IMINOSTILBENE]: 12.01
Cc1cc(N2CCOCC2)nc(N2CCOCC2)n1: 6.71
CC1=C2C3OC(=O)C(C)C3CCC2(C)C=C(Cl)C1=O (stereo unspecified): -9.28
COc1ccc(Cc2nnc(SC)n2-c2ccc(F)cc2)cc1OC: 10.28
C=C(C)C(=O)Nc1ccc(NC(C)C)cc1: 6.32

The compound identified as CCN(CC)CCNC(=O)c1ccc(NCN2C(=O)NC(c3ccccc3)(c3ccccc3)C2=O)cc1 registered its Inhibition at 11.42

The compound identified as CCCC1OC(c2cc3c(cc2Cl)OCO3)OCC1CC (stereo unspecified) registered its Inhibition at 11.31

The compound identified as CC(=O)[C@H]1CC[C@H]2[C@@H]3CCC4=CC(=O)C=C[C@]4(C)[C@H]3C(=O)C[C@]12C registered its Inhibition at -4.55

====

# Tested on: Acinetobacter baumannii
# method.notes: Antibacterial activity against Acinetobacter baumannii ATCC 19606 (CO-ADD:GN_034); MIC in CAMBH media using NBS plates, by Resazurin F(560/590)
# Format: functional
# stated.conditions: Concentration 20 uM, ASSAY_TEST Inhibition of Bacterial Growth, detection method Resazurin, Fluorescence (ex560/em590), MEDIA CAMHB, plate type 384well, CORNING #3640, time 18 hr
property.name: Inhibition
Answer as a quantity: numeral, then unit.

Answered examples (10):
COc1ccc(NC(=O)CC(C)=O)c(OC)c1: -8.6%
O=C(Cn1nnc(N2CCCCC2)n1)N/N=C/c1ccccc1O: 3.41%
CCCCNc1nc(N)ncc1[N+](=O)[O-]: -8.97%
O=NC1=C(c2cccc([N+](=O)[O-])c2)Nc2ccccc2S1: 0.77%
OCc1ncccc1O: -10.34%
CC(C)(C)c1ccc(OC(=O)c2ccccc2)cc1: 6.71%
OC1COC(OCc2ccccc2)C(O)C1O (stereo not drawn): -10.71%
C(=C\c1ccc(/C=C/c2ccccc2)nn1)/c1ccccc1: 11.6%
Nc1ccc(/N=N/c2ccccc2Cl)c(N)n1: -1.2%
CC(=O)Nc1nc(C)c(CCC2OCCO2)c(O)n1: 12.66%

Case CC(=O)OCCn1c([N+](=O)[O-])cnc1/C=[N+](\[O-])C1CCCCC1 , Acinetobacter baumannii, Inhibition recorded as 11.41%

Case CCOC(=O)C(=O)Cc1nc2ccccc2s1 , Acinetobacter baumannii, Inhibition recorded as -6.12%

Case COc1ccc(C2=NC(=O)NC2c2ccc(OC)cc2)cc1 (stereo not drawn) , Acinetobacter baumannii, Inhibition recorded as 10.45%

====

compounds and their reported Inhibition
# Tested on: Acinetobacter baumannii
# method.notes: Antibacterial activity against Acinetobacter baumannii ATCC 19606 (CO-ADD:GN_034); MIC in CAMBH media using NBS plates, by Resazurin F(560/590)
# Type: functional
# stated.conditions: Concentration 20 uM, ASSAY_TEST Inhibition of Bacterial Growth, detection method Resazurin, Fluorescence (ex560/em590), MEDIA CAMHB, plate type 384well, CORNING #3640, time 18 hr
Number in %, nothing else.

COc1ccccc1/C=C(\C#N)C(=O)O: 1.75

Case CCSc1nc(C)cc(S)n1 , Acinetobacter baumannii, Inhibition recorded as -11.79

Case C[C@@H]1C[C@H]2OC(=O)[C@@]3(C)CCC[C@@](C)([C@@H]23)[C@@]1(O)CCc1ccoc1 , Acinetobacter baumannii, Inhibition recorded as -3.35

Case O=C1C2CC3N1CCC31c3ccccc3-n3c1c2ccc3=O (stereo not given) , Acinetobacter baumannii, Inhibition recorded as -3.15
